Biological target: Complex II (CII) (Rattus norvegicus, UniProt P21913+Q641Z9+Q6PCT8)
Sequence (P21913 31-282): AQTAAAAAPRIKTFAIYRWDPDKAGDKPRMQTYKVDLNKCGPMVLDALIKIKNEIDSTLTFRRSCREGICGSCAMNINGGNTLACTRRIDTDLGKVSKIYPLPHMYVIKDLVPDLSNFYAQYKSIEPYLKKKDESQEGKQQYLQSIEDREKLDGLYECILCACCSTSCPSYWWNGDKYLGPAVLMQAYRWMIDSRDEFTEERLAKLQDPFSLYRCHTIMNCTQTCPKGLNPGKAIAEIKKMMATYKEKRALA
Sequence (Q641Z9 30-169 limits assumed): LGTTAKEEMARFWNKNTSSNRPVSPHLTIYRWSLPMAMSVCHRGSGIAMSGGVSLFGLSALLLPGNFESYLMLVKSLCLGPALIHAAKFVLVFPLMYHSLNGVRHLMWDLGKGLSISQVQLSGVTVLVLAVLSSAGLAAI
Sequence (Q6PCT8 57-159): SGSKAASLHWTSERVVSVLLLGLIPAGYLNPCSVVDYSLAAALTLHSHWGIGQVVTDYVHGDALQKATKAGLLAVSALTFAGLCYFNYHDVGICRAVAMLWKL
Sequence (Q920L2 35-656 partner): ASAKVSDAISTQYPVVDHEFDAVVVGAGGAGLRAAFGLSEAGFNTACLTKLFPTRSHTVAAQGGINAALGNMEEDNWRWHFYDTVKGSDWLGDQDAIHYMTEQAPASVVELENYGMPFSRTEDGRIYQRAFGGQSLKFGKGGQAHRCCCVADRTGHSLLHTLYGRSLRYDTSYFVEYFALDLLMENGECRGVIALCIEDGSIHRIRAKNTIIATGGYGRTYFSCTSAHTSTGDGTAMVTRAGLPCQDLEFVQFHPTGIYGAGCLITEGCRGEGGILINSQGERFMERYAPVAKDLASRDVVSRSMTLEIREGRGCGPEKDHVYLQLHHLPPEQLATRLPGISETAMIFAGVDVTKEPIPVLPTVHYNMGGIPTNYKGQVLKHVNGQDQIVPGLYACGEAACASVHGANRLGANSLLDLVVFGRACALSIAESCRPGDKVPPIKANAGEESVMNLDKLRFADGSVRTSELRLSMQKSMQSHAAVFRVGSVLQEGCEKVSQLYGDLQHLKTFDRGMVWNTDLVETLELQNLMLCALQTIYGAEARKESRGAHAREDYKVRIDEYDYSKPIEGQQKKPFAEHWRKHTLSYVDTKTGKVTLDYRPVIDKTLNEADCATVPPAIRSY
Assay: Complex II inhibition assay
Format: biochemical
Conditions: CII IC50, rat heart mitochondria; mean of n = 4 ± S.D.

{"compound": "COc1[nH]c(=O)c(C(=O)[C@@H](C)C[C@H](C)[C@@H](Cl)CCl)c(O)c1OC [Atpenin A5, atpenin A5, reference compound]", "unit_of_measurement": "nM", "IC50": 3.3}
{"compound": "COc1nc(O)c(C(=O)CCCCO)c(O)c1OC [16e]", "unit_of_measurement": "nM", "IC50": 3730}
{"compound": "COc1nc(O)c(C(=O)CCCCOCc2ccccc2)c(O)c1OC [16d]", "unit_of_measurement": "nM", "IC50": 281}
{"compound": "CCCCCCC(=O)c1c(O)nc(OC)c(OC)c1O [16f]", "unit_of_measurement": "nM", "IC50": 283}
